Test system: KLK2 mRNA
Assay: KLK2 mRNA (AR target gene) in C4-2B MR cells
Assay type: cell-based, human
Settings: 5.00 μM
Oligonucleotides are written 5' to 3', each unit as a sugar letter and its base; * is a phosphorothioate linkage, no mark a phosphodiester; rarer units and linkages stand in square brackets, end groups in braces. Plain capitals give the bases only. e = 2'-O-(2-methoxyethyl) (MOE); l = locked nucleic acid (LNA); k = constrained ethyl (cEt); [5mC] = 5-methylcytosine; d = 2'-deoxy (DNA)
Reported metric: Percent inhibition of KLK2 mRNA in C4-2B MR cells (%)

- Substance: "554221 (ACCAAGTTTCTTCAGC; sugars from the 5' end l3 d10 l3, all phosphorothioate, methylation of C not given here) [compound 554221]"
  Target desc: "KLK2 mRNA"
  Measured: 66
- Substance: "347526 (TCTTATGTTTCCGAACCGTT; sugars from the 5' end e5 d10 e5, backbone and methylation of C not given here) [compound 347526]"
  Target desc: "KLK2 mRNA"
  Measured: 22
- Substance: "549434 (k[5mC]*kT*kA*dA*dA*d[5mC]*dT*dT*d[5mC]*d[5mC]*d[5mC]*dG*dT*kG*kG*k[5mC]) [compound 549434]"
  Target desc: "KLK2 mRNA"
  Measured: 68
- Substance: "549458 (kG*kT*kT*dG*dA*dT*dT*dT*dA*dA*dT*dG*dG*kT*kT*kG) [compound 549458]"
  Target desc: "KLK2 mRNA"
  Measured: 93
- Substance: "549372 (kA*kA*kG*dT*dT*dG*dT*dA*dG*dT*dA*dG*dT*k[5mC]*kG*k[5mC]) [compound 549372]"
  Target desc: "KLK2 mRNA"
  Measured: 87

###

Tested on: AR mRNA
Experiment: Dose-dependent antisense inhibition of human AR in HuVEC cells (electroporation, qRT-PCR RTS3559, IC50)
Type: cell-based
Details: Table 34; HuVEC, electroporation, approximately 16 hours
Oligonucleotides are written 5' to 3', each unit as a sugar letter and its base; * is a phosphorothioate linkage, no mark a phosphodiester; rarer units and linkages stand in square brackets, end groups in braces. Plain capitals give the bases only. k = constrained ethyl (cEt); [5mC] = 5-methylcytosine; d = 2'-deoxy (DNA)
Please assign NO whenever IC50 is at or above 600 nM, and YES whenever it is below.

- Substance: "584002 (k[5mC]*kT*kG*d[5mC]*dT*d[5mC]*dA*d[5mC]*d[5mC]*dA*dT*dG*d[5mC]*k[5mC]*kG*k[5mC]; antisense) [compound 584002]"
  Group label: "YES"
- Substance: "583998 (k[5mC]*kA*kT*dG*d[5mC]*d[5mC]*dG*d[5mC]*d[5mC]*dA*dG*dG*dG*kT*kA*k[5mC]; antisense) [compound 583998]"
  Group label: "NO"
- Substance: "583932 (kT*k[5mC]*kT*d[5mC]*d[5mC]*dA*dG*d[5mC]*dT*dT*dG*dA*dT*kG*k[5mC]*kG; antisense) [compound 583932]"
  Group label: "YES"
- Substance: "583917 (kT*k[5mC]*kG*d[5mC]*dG*dA*d[5mC]*dT*d[5mC]*dT*dG*dG*dT*kA*k[5mC]*kG; antisense) [compound 583917]"
  Group label: "NO"
- Substance: "549458 (kG*kT*kT*dG*dA*dT*dT*dT*dA*dA*dT*dG*dG*kT*kT*kG) [compound 549458]"
  Group label: "YES"

###

Tested on: AR mRNA
Experiment: Dose-dependent antisense inhibition of human AR in HuVEC cells (electroporation, qRT-PCR RTS3559, IC50)
Type: cell-based
Settings: Table 31; 750.0 nM, HuVEC, electroporation, approximately 16 hours
Oligonucleotides are written 5' to 3', each unit as a sugar letter and its base; * is a phosphorothioate linkage, no mark a phosphodiester; rarer units and linkages stand in square brackets, end groups in braces. Plain capitals give the bases only. k = constrained ethyl (cEt); [5mC] = 5-methylcytosine; d = 2'-deoxy (DNA)

- Substance: "583693 (antisense k[5mC]*kT*kG*dT*dG*dA*dT*dG*dA*dT*dG*d[5mC]*dG*kG*kT*kA) [compound 583693]"
  Target desc: "AR mRNA"
  percent inhibition of AR, 750.0 nM (%): 64
- Substance: "583818 (antisense kT*kG*kG*dT*d[5mC]*dG*dA*dA*dG*dT*dG*d[5mC]*d[5mC]*k[5mC]*k[5mC]*k[5mC]) [compound 583818]"
  Target desc: "AR mRNA"
  percent inhibition of AR, 750.0 nM (%): 71
- Substance: "583747 (antisense kG*k[5mC]*kT*dG*d[5mC]*dG*d[5mC]*dT*d[5mC]*dG*d[5mC]*dG*dG*k[5mC]*k[5mC]*kT) [compound 583747]"
  Target desc: "AR mRNA"
  percent inhibition of AR, 750.0 nM (%): 50
- Substance: "549458 (kG*kT*kT*dG*dA*dT*dT*dT*dA*dA*dT*dG*dG*kT*kT*kG) [compound 549458]"
  Target desc: "AR mRNA"
  percent inhibition of AR, 750.0 nM (%): 92
- Substance: "583746 (antisense kT*kG*k[5mC]*dG*d[5mC]*dT*d[5mC]*dG*d[5mC]*dG*dG*d[5mC]*d[5mC]*kT*k[5mC]*kT) [compound 583746]"
  Target desc: "AR mRNA"
  percent inhibition of AR, 750.0 nM (%): 65
- Substance: "583799 (antisense kT*kG*k[5mC]*d[5mC]*dT*dT*d[5mC]*dG*dG*dA*dT*dA*d[5mC]*kT*kG*k[5mC]) [compound 583799]"
  Target desc: "AR mRNA"
  percent inhibition of AR, 750.0 nM (%): 76

###

System: AR mRNA
Assay: Dose-dependent antisense inhibition of human AR in HuVEC cells (electroporation, qRT-PCR RTS3559, IC50)
Assay type: cell-based
Details: 62.5 nM; HuVEC, ~16 h; Table 14
Oligonucleotides are written 5' to 3', each unit as a sugar letter and its base; * is a phosphorothioate linkage, no mark a phosphodiester; rarer units and linkages stand in square brackets, end groups in braces. Plain capitals give the bases only. e = 2'-O-(2-methoxyethyl) (MOE); k = constrained ethyl (cEt); d = 2'-deoxy (DNA)
Entries and their percent inhibition of AR

- Substance: "560132 (antisense kG*kT*kT*dG*dA*dT*dT*dT*dA*dA*dT*dG*kG*kT*kT*eG) [compound 560132]"
  percent inhibition of AR (%): 19
- Substance: "569220 (antisense eA*kT*kG*kG*dT*dT*dG*dA*dT*dT*dT*dA*kA*kT*kG*eG) [compound 569220]"
  percent inhibition of AR (%): 29
- Substance: "569238 (antisense eG*kT*kT*kG*dA*dT*dT*dT*dA*dA*dT*kG*kG*kT*eT*eG) [compound 569238]"
  percent inhibition of AR (%): 32
- Substance: "549458 (kG*kT*kT*dG*dA*dT*dT*dT*dA*dA*dT*dG*dG*kT*kT*kG) [compound 549458]"
  percent inhibition of AR (%): 19
- Substance: "560133 (antisense kA*kT*kG*dG*dT*dT*dG*dA*dT*dT*dT*dA*kA*kT*kG*eG) [compound 560133]"
  percent inhibition of AR (%): 15
- Substance: "569215 (antisense kT*kG*kG*dT*dT*dG*dA*dT*dT*dT*dA*dA*kT*kG*kG*eT) [compound 569215]"
  percent inhibition of AR (%): 2

###

System: AR mRNA
Test: Dose-dependent antisense inhibition of human AR in HuVEC cells (electroporation, qRT-PCR RTS3559, IC50)
Type: cell-based
Settings: HuVEC cells, electroporation, 750.0 nM ASO
Oligonucleotides are written 5' to 3', each unit as a sugar letter and its base; * is a phosphorothioate linkage, no mark a phosphodiester; rarer units and linkages stand in square brackets, end groups in braces. Plain capitals give the bases only. k = constrained ethyl (cEt); [5mC] = 5-methylcytosine; d = 2'-deoxy (DNA)
Give true when the value for inhibition of AR mRNA at 750.0 nM is at least 80%. Give false when it is less.

- Substance: "586224 (kT*kT*kG*kA*kT*dT*dT*dA*dA*dT*dG*dG*dT*kT*kG*k[5mC]; antisense) [compound 586224]"
  Target desc: "AR mRNA"
  Group label: "true"
- Substance: "586227 (kT*kG*kA*kT*kT*dT*dA*dA*dT*dG*dG*dT*dT*kG*k[5mC]*kA; antisense) [compound 586227]"
  Target desc: "AR mRNA"
  Group label: "true"
- Substance: "549458 (kG*kT*kT*dG*dA*dT*dT*dT*dA*dA*dT*dG*dG*kT*kT*kG) [compound 549458]"
  Target desc: "AR mRNA"
  Group label: "true"
- Substance: "586225 (kG*kT*kT*kG*kA*dT*dT*dT*dA*dA*dT*dG*dG*kT*kT*kG; antisense) [compound 586225]"
  Target desc: "AR mRNA"
  Group label: "true"
- Substance: "549372 (kA*kA*kG*dT*dT*dG*dT*dA*dG*dT*dA*dG*dT*k[5mC]*kG*k[5mC]) [compound 549372]"
  Target desc: "AR mRNA"
  Group label: "false"
- Substance: "586124 (kG*kA*kT*dT*dT*dA*dA*dT*dG*dG*dT*dT*dG*k[5mC]*kA*kA; further chemistry not given here) [compound 586124]"
  Target desc: "AR mRNA"
  Group label: "true"
